The entries below are paired with their reported IC50.
Molecular target: human plasma protein factor Xa (Homo sapiens, UniProt P00742)
Construct: measure proteolytic activity of the enzyme (factor Xa)
Sequence (P00742 235-488 limits assumed): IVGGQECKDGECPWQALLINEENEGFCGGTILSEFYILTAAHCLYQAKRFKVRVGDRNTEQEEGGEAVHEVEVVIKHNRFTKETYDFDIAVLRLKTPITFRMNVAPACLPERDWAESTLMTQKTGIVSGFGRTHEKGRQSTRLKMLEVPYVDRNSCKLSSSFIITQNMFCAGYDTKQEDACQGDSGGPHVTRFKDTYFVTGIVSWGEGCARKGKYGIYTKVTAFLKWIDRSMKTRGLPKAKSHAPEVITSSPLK
Sequence (P00742 41-179 partner limits assumed): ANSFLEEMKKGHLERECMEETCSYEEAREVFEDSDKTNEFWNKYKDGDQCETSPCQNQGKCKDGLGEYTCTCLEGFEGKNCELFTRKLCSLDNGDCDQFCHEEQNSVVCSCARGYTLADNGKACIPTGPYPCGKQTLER
Test: Factor Xa IC50 determination: cleavage of paranitroanilide substrate S-2765 in 96-well plates
Conditions: fXa 1 nM, S-2765 100 μM, Tris buffered saline pH 7.4, room temperature
Readout Type: IC50

Compound: O=C(NCC1CC(c2ccc(-c3ccccc3CN3CCOCC3)cc2)=NO1)c1ccc(Cl)s1 (centres unmarked)
Readout Value: ≤ 100 nM
//
Compound: CN(C)C(=N)c1ccc(-n2cc(CNC(=O)c3ccc(Cl)s3)nn2)cc1
Readout Value: ≤ 100 nM
//
Compound: O=C(NCc1cn(-c2ccc(N3CCOCC3=O)cc2F)nn1)c1ccc(Cl)s1
Readout Value: ≤ 100 nM
//
Compound: O=C(NCc1nc(-c2ccc(-n3ccccc3=O)cc2)no1)c1ccc(Cl)s1
Readout Value: ≤ 100 nM
//
Compound: N=C(c1ccc(-c2cc(CNC(=O)c3ccc(Cl)s3)on2)c(N2CCOCC2)c1)N1CCCC1
Readout Value: ≤ 100 nM
//
Compound: COc1ccc(-c2cc(CNC(=O)c3ccc(Cl)s3)on2)cc1
Readout Value: ≥ 500 nM
//
Compound: CCN(C)C(=N)c1ccc(-c2cc(CN(C)C(=O)c3ccc(Cl)s3)on2)cc1
Readout Value: ≥ 500 nM
//
Compound: O=C(O)c1ccc(C2=NOC(CNC(=O)c3ccc(Cl)s3)C2)cc1 (centres unmarked)
Readout Value: ≥ 500 nM

====

Target: human plasma protein factor Xa (Homo sapiens)
Construct: measure proteolytic activity of the enzyme (factor Xa)
Assay: Factor Xa IC50 determination: cleavage of paranitroanilide substrate S-2765 in 96-well plates
Conditions: fXa 1 nM, S-2765 100 μM, Tris buffered saline pH 7.4, room temperature
pIC50: −log10 of the molar value.

Molecule: N=C(c1ccc(C2=NOC(CNC(=O)c3ccc(Cl)s3)C2)c(N2CCOCC2)c1)N1CCCCC1 (stereo not drawn)
pIC50: 6.30 to 7.00
//
Molecule: O=C(NCc1cn(-c2ccc(N3CCNCC3)nc2)nn1)c1ccc(Cl)s1
pIC50: 6.30 to 7.00
//
Molecule: CCN(CC)CCN(C)C(=O)c1ccc(C2=NOC(CNC(=O)c3ccc(Cl)s3)C2)cc1 (stereo not drawn)
pIC50: ≥ 7.00
//
Molecule: C#CCN(C)C(=N)c1ccc(-c2cc(CN(C)C(=O)c3ccc(Cl)s3)on2)cc1
pIC50: ≤ 6.30
//
Molecule: C[C@H](NC(=O)c1ccc(Cl)s1)c1cc(-c2ccc(C(=N)N3CCCCC3)cc2)no1
pIC50: ≥ 7.00
//
Molecule: CN1CCN=C1c1ccc(-c2cccc(CNC(=O)c3ccc(Cl)s3)c2)cc1
pIC50: ≥ 7.00
//
Molecule: O=C(NCC1CC(c2cccc(-c3ccc(CN4CCCC4)cc3)c2)=NO1)c1ccc(Cl)s1 (stereo not drawn)
pIC50: ≤ 6.30
//
Molecule: CCOC(=O)C1CCN(C(=N)c2ccc(-c3nc(CNC(=O)c4ccc(Cl)s4)cs3)cc2)CC1
pIC50: 6.30 to 7.00
//
Molecule: CN(c1ccncc1)c1ccc(-c2cc(CNC(=O)c3ccc(Cl)s3)on2)cc1
pIC50: ≤ 6.30
//
Molecule: CN1CCN(c2ccc(C3=NOC(CNC(=O)c4ccc(Cl)s4)C3)cc2)CC1 (stereo not drawn)
pIC50: 6.30 to 7.00
//
Molecule: Cc1ccc(=O)n(-c2ccc(-n3cc(CNC(=O)c4ccc(Cl)s4)nn3)cc2)c1
pIC50: ≥ 7.00
//
Molecule: N=C(c1ccc(-n2cc(CNC(=O)c3ccc(Cl)s3)nn2)c(F)c1)N1CCCCC1
pIC50: ≥ 7.00
//
Molecule: CN(C)C(=N)c1ccc(C2=NOC(CNC(=O)c3ccc(Cl)s3)C2)cc1 (stereo not drawn)
pIC50: ≥ 7.00
//
Molecule: O=C(NCC1CC(c2cccc(-c3ccccc3CN3CCCC3)c2)=NO1)c1ccc(Cl)s1 (stereo not drawn)
pIC50: ≤ 6.30
//
Molecule: N#Cc1ccc(C2=NOC(CNC(=O)c3ccc(Cl)s3)C2)cc1 (stereo not drawn)
pIC50: ≥ 7.00
//
Molecule: N=C(c1ccc(C2=NOC(CNC(=O)c3ccc(Cl)s3)C2)c(N2CCCCCC2)c1)N1CCCCC1 (stereo not drawn)
pIC50: ≥ 7.00
//
Molecule: CCN(C)C(=N)c1ccc(-c2nc(CNC(=O)c3ccc(Cl)s3)co2)cc1
pIC50: 6.30 to 7.00
//
Molecule: O=C(NCc1cc(-c2cccc(-c3cccnc3)c2)no1)c1ccc(Cl)s1
pIC50: ≤ 6.30
//
Molecule: O=C(NCC1CC(c2ccc(C(=O)N3CCCC3)cc2)=NO1)c1ccc(Cl)s1 (stereo not drawn)
pIC50: ≥ 7.00
//
Molecule: N=C(c1ccc(-n2cc(CNC(=O)c3ccc(Cl)s3)nn2)c(F)c1)N1CCCC1
pIC50: ≥ 7.00
//
Molecule: CSc1cc(C2=NCCN2C)ccc1-c1cc(CNC(=O)c2ccc(Cl)s2)on1
pIC50: ≥ 7.00
//
Molecule: O=C(NCC1CC(c2ccc(N3CCCCC3=O)cc2)=NO1)c1ccc(Cl)s1 (stereo not drawn)
pIC50: 6.30 to 7.00
//
Molecule: CN1CCN=C1c1ccc(-c2nc(CNC(=O)c3ccc(Cl)s3)co2)cc1
pIC50: ≥ 7.00
//
Molecule: O=C(NCC1CC(c2ccc(-n3ccccc3=O)cc2)=NO1)c1ccc(Cl)s1 (stereo not drawn)
pIC50: ≥ 7.00
//
Molecule: C[C@@H](NC(=O)c1ccc(Cl)s1)c1cc(-c2ccc(C(=N)N3CCCC3)cc2)no1
pIC50: ≥ 7.00
//
Molecule: C[C@@H](NC(=O)c1ccc(Cl)s1)c1cc(-c2ccc(C(=N)N3CCCCC3)cc2)no1
pIC50: ≤ 6.30
//
Molecule: CN(C)C(=N)c1ccc(-n2cc(CNC(=O)c3ccc(Cl)s3)nn2)c(F)c1
pIC50: ≥ 7.00
//
Molecule: N=C(c1ccc(-n2cc(CNC(=O)c3ccc(Cl)s3)nn2)cc1)N1CCC1
pIC50: ≥ 7.00
//
Molecule: N=C(c1ccccn1)N1CCC(C2=NOC(CNC(=O)c3ccc(Cl)s3)C2)CC1 (stereo not drawn)
pIC50: ≤ 6.30
//
Molecule: CN1CCCN(c2ccc(-n3cc(CNC(=O)c4ccc(Cl)s4)nn3)cn2)CC1
pIC50: ≥ 7.00
//
Molecule: O=C(NCC1CC(c2ccc(-c3cccnc3)cc2)=NO1)c1ccc(Cl)s1 (stereo not drawn)
pIC50: 6.30 to 7.00
//
Molecule: CN1CCN(Cc2ccccc2-c2ccc(C3=NOC(CNC(=O)c4ccc(Cl)s4)C3)cc2)CC1 (stereo not drawn)
pIC50: ≥ 7.00
//
Molecule: CC(C)Oc1cc(C(=N)N2CCCC2)ccc1-c1cc(CNC(=O)c2ccc(Cl)s2)on1
pIC50: ≥ 7.00

====

Biological target: human plasma protein factor Xa (Homo sapiens)
Construct: measure proteolytic activity of the enzyme (factor Xa); purchased Haematologic Technologies (Essex Junction, Vt.); host or cells: human plasma
Assay: Factor Xa IC50 determination: cleavage of paranitroanilide substrate S-2765 in 96-well plates
Type: biochemical
Settings: fXa 1 nM, S-2765 100 μM, Tris buffered saline pH 7.4, room temperature
The entries below are paired with their reported IC50.

Compound: COC[C@H]1CCCN1c1ccc(C2=NOC(CNC(=O)c3ccc(Cl)s3)C2)cc1 (some centres unmarked)
System Under Test: human plasma protein factor Xa (Homo sapiens)
IC50: ≥ 500 nM
//
Compound: COc1cc(C2=NCCN2C)ccc1-c1cc(CNC(=O)c2ccc(Cl)s2)on1
System Under Test: human plasma protein factor Xa (Homo sapiens)
IC50: ≤ 100 nM
//
Compound: CN(C)Cc1cccc(-c2ccc(-c3cc(CNC(=O)c4ccc(Cl)s4)on3)cc2)c1
System Under Test: human plasma protein factor Xa (Homo sapiens)
IC50: 100 to 500 nM
//
Compound: CN1CCN=C1c1ccc(-n2cc(CNC(=O)c3ccc(Cl)s3)cn2)cc1
System Under Test: human plasma protein factor Xa (Homo sapiens)
IC50: ≤ 100 nM
//
Compound: CSc1cc(C(=N)N2CCCCC2)ccc1C1=NOC(CNC(=O)c2ccc(Cl)s2)C1 (centres unmarked)
System Under Test: human plasma protein factor Xa (Homo sapiens)
IC50: ≤ 100 nM
//
Compound: Nc1ccc(-c2cc(CNC(=O)c3ccc(Cl)s3)on2)cc1
System Under Test: human plasma protein factor Xa (Homo sapiens)
IC50: ≤ 100 nM
//
Compound: COc1ccc(CN(C)C)c(-c2ccc(C3=NOC(CNC(=O)c4ccc(Cl)s4)C3)cc2)c1 (centres unmarked)
System Under Test: human plasma protein factor Xa (Homo sapiens)
IC50: ≥ 500 nM
//
Compound: CN(C)c1cc(C(=N)N2CCCC2)ccc1C1=NOC(CNC(=O)c2ccc(Cl)s2)C1 (centres unmarked)
System Under Test: human plasma protein factor Xa (Homo sapiens)
IC50: 100 to 500 nM
